From: ChEMBL document CHEMBL2311448

Assay: AUC in Sprague-Dawley rat liver at 10 mg/kg, sc
Format: ADME, organism-based
Parameters: dose 10 mg/kg, route subcutaneous
measurementLabel: AUC (ng·h/mL)

INSERT INTO assay_data (testsmiles, measurementlabel, obsvalue) VALUES
  ('CCCCCCCC(=O)CCCCCC/C=C/[C@H](C(=O)N[C@@H](Cc1ccc(OCc2ccccc2)cc1)C(=O)[O-])[C@@](O)(CC(=O)[O-])C(=O)[O-].[Na+].[Na+].[Na+]', 'AUC', 100000);

(1) CC#CCOc1ccc(C[C@H](NC(=O)[C@@H](/C=C/CCCCCCC(=O)CCCCCCC)[C@@](O)(CC(=O)[O-])C(=O)[O-])C(=O)[O-])cc1.[Na+].[Na+].[Na+]
(2) CCCCCCCC(=O)CCCCCC/C=C/[C@H](C(=O)N[C@@H](Cc1ccc(-c2cccc(OC)c2)cc1)C(=O)[O-])[C@@](O)(CC(=O)[O-])C(=O)[O-].[Na+].[Na+].[Na+]
QUERY: Would you kindly point out which of 1 and 2 has the smaller AUC figure? Selection: enter the item's label.
RESULT: 1

* * *

Assay: Half life in Sprague-Dawley rat plasma at 10 mg/kg, sc
Assay type: ADME, organism-based
Parameters: dose 10 mg/kg, route subcutaneous
measurementLabel: half-life (min)

INSERT INTO assay_data (testsmiles, uom, obsvalue) VALUES
  ('CCCCCCCC(=O)CCCCCC/C=C/[C@H](C(=O)N[C@@H](Cc1ccc(OCc2ccccc2)cc1)C(=O)[O-])[C@@](O)(CC(=O)[O-])C(=O)[O-].[Na+].[Na+].[Na+]', 'min', 589);

(P) CC#CCOc1ccc(C[C@H](NC(=O)[C@@H](/C=C/CCCCCCC(=O)CCCCCCC)[C@@](O)(CC(=O)[O-])C(=O)[O-])C(=O)[O-])cc1.[Na+].[Na+].[Na+]
(Q) CCCCCCCC(=O)CCCCCC/C=C/[C@H](C(=O)N[C@@H](Cc1ccc(-c2cccc(OC)c2)cc1)C(=O)[O-])[C@@](O)(CC(=O)[O-])C(=O)[O-].[Na+].[Na+].[Na+]
QUERY: Please indicate which item has the smaller measured half-life: P versus Q Return value: the label identifying the chosen record.
RESULT: P
(P: 239 min, Q: 888 min)

* * *

Tested on: Hepatitis C virus
Assay: Antiviral activity against HCV infected in human hepatoma cells assessed as inhibition of viral replication
Assay type: functional, organism-based, Hepacivirus hominis
measurementLabel: IC50 (nM)

INSERT INTO assay_data (compound, measurementlabel, obsvalue) VALUES
  ('CCCCCCCC(=O)CCCCCC/C=C/[C@H](C(=O)N[C@@H](Cc1ccc(-c2ccccc2)cc1)C(=O)O)[C@@](O)(CC(=O)O)C(=O)O', 'IC50', 1.6),
  ('CCCCCCCC(=O)CCCCCC/C=C/[C@H](C(=O)N[C@@H](Cc1ccc2ccccc2c1)C(=O)O)[C@@](O)(CC(=O)O)C(=O)O', 'IC50', 14),
  ('CCCCCCCC(=O)CCCCCCCC[C@H](C(=O)N[C@@H](Cc1ccc(OCCC(C)C)cc1)C(=O)O)[C@@](O)(CC(=O)O)C(=O)O', 'IC50', 150),
  ('CCCCCCCC(=O)CCCCCC/C=C/[C@H](C(=O)N[C@@H](Cc1ccc(-c2cccc(OC)c2)cc1)C(=O)O)[C@@](O)(CC(=O)O)C(=O)O', 'IC50', 2.6),
  ('CCCCCCCCCC(=O)CCCC/C=C/[C@H](C(=O)N[C@@H](Cc1ccc(OCCC(C)C)cc1)C(=O)O)[C@@](O)(CC(=O)O)C(=O)O', 'IC50', 5.1),
  ('C=CCCCCCC(=O)CCCCCC/C=C/[C@H](C(=O)N[C@@H](Cc1ccc(OCCC(C)C)cc1)C(=O)O)[C@@](O)(CC(=O)O)C(=O)O', 'IC50', 6.1),
  ('CCCCCCCC(=O)CCCCCC/C=C/[C@H](C(=O)N[C@@H](Cc1ccc(OCCC(C)C)cc1)C(=O)O)[C@@](O)(CC(=O)O)C(=O)O', 'IC50', 1.4),
  ('CCCCCCCCCCCCCC/C=C/[C@H](C(=O)NC(Cc1ccc(OCC=C(C)C)cc1)C(=O)O)[C@@](O)(CC(=O)O)C(=O)O (some centres not stated)', 'IC50', 155);

(P) CC(C)CCOc1ccc(C[C@H](NC(=O)[C@@H](/C=C/CCCCCCC(=O)CCc2ccccc2)[C@@](O)(CC(=O)O)C(=O)O)C(=O)O)cc1
(Q) CC(C)CCCCC(=O)CCCCCC/C=C/[C@H](C(=O)N[C@@H](Cc1ccc(OCCC(C)C)cc1)C(=O)O)[C@@](O)(CC(=O)O)C(=O)O
(R) CC#CCOc1ccc(C[C@H](NC(=O)[C@@H](/C=C/CCCCCCC(=O)CCCCCCC)[C@@](O)(CC(=O)O)C(=O)O)C(=O)O)cc1
(S) CCCCCCCC(=O)CCCCCC/C=C/[C@H](C(=O)N[C@@H](Cc1ccc(OCc2ccccc2)cc1)C(=O)O)[C@@](O)(CC(=O)O)C(=O)O
QUERY: Put these in order: smallest IC50 first, largest last. The response must list the labels following the requested ordering.
RESULT: S, R, Q, P
(S: 0.32 nM, R: 1.2 nM, Q: 5.7 nM, P: 290 nM)

(P) CCCCCCCC(=O)CCCCCC/C=C/[C@H](C(=O)N[C@@H](Cc1ccc(OC)cc1)C(=O)O)[C@@](O)(CC(=O)O)C(=O)O
(Q) CCCCCCCC(O)CCCCCC/C=C/[C@H](C(=O)N[C@@H](Cc1ccc(OCCC(C)C)cc1)C(=O)O)[C@@](O)(CC(=O)O)C(=O)O (mixture of isomers)
(R) CCCCCCCC(=O)CCCCCC/C=C/[C@H](C(=O)N[C@@H](Cc1cccs1)C(=O)O)[C@@](O)(CC(=O)O)C(=O)O
QUERY: Place the items in sequence of falling IC50. Please respond with the labels ordered as the question requires.
RESULT: R, Q, P
(R: 490 nM, Q: 25 nM, P: 6.4 nM)

* * *

Test: Cytotoxicity against human Hepatoma cells
Type: cell-based
Entries annotated with measured CC50

INSERT INTO measurements (testsmiles, obsvalue) VALUES
  ('CCCC(=O)CCCCCC/C=C/[C@H](C(=O)N[C@@H](Cc1ccc(OCCC(C)C)cc1)C(=O)O)[C@@](O)(CC(=O)O)C(=O)O', '> 5 µM');

QUERY: Write down CC50 measured for item CCCCCCCC(=O)CCCCCC/C=C/[C@H](C(=O)N[C@@H](Cc1ccc(OCCCN)cc1)C(=O)O)[C@@](O)(CC(=O)O)C(=O)O
RESULT: > 1 µM

QUERY: Give CC50 for C=CCCCCCC(=O)CCCCCC/C=C/[C@H](C(=O)N[C@@H](Cc1ccc(OCCC(C)C)cc1)C(=O)O)[C@@](O)(CC(=O)O)C(=O)O
RESULT: > 1 µM

QUERY: Please list CC50 recorded for the compound CCCCCCCC(=O)CCCCCC/C=C/[C@H](C(=O)N[C@@H](Cc1ccc(OCc2ccccc2)cc1)C(=O)O)[C@@](O)(CC(=O)O)C(=O)O
RESULT: > 5 µM

QUERY: Entry CCCCCCCC(=O)CCCCCC/C=C/[C@H](C(=O)N[C@@H](Cc1ccc(OC)cc1)C(=O)O)[C@@](O)(CC(=O)O)C(=O)O needs its CC50 filled in; supply it.
RESULT: > 5 µM

QUERY: Tell me CC50 reported for CCCCCCCC(=O)CCCCCC/C=C/[C@H](C(=O)N[C@H](Cc1ccc(OCCC(C)C)cc1)C(=O)O)[C@@](O)(CC(=O)O)C(=O)O
RESULT: > 5 µM

QUERY: Quote CC50 reported for CCCCCCCC(=O)CCCCCC/C=C/[C@H](C(=O)N[C@@H](CC1CCCCC1)C(=O)O)[C@@](O)(CC(=O)O)C(=O)O please.
RESULT: > 5 µM

* * *

Test: Cytotoxicity against human Hepatoma cells
Assay type: cell-based
Examples of compounds with documented CC50 follow.

INSERT INTO results (testsmiles, obsvalue) VALUES
  ('CCCCCCCC(=O)CCCCCC/C=C/[C@H](C(=O)N[C@@H](Cc1ccc(OCCCC(C)C)cc1)C(=O)O)[C@@](O)(CC(=O)O)C(=O)O', '> 1 µM');

QUERY: Give CC50 for the following compound: CCCCCCCC(=O)CCCCCC/C=C/[C@H](C(=O)N[C@@H](Cc1ccc(OCCCC)cc1)C(=O)O)[C@@](O)(CC(=O)O)C(=O)O
RESULT: > 5 µM

QUERY: Recall and state the measured CC50 for CC(C)CCOc1ccc(C[C@H](NC(=O)[C@@H](/C=C/CCCCCCC(=O)Cc2ccccn2)[C@@](O)(CC(=O)O)C(=O)O)C(=O)O)cc1 .
RESULT: > 1 µM

QUERY: Annotate the compound CC#CCOc1ccc(C[C@H](NC(=O)[C@@H](/C=C/CCCCCCC(=O)CCCCCCC)[C@@](O)(CC(=O)O)C(=O)O)C(=O)O)cc1 with its measured CC50.
RESULT: > 5 µM

QUERY: Output CC50 of CCCCCCCC(=O)CCCCCC/C=C/[C@H](C(=O)N[C@@H](Cc1ccc(-c2cccc(OC)c2)cc1)C(=O)O)[C@@](O)(CC(=O)O)C(=O)O
RESULT: > 1 µM

QUERY: Read off the recorded CC50 for CCCCCCCC(=O)CCCCCC/C=C/[C@H](C(=O)N[C@@H](Cc1ccc2ccccc2c1)C(=O)O)[C@@](O)(CC(=O)O)C(=O)O
RESULT: > 5 µM
